The measurements presented in this section are drawn from paper PMC9385451.

Target: Eimeria tenella aldolase 2 (EtALD2), fructose-1,6-bisphosphate aldolase (Eimeria tenella, UniProt U6KYI1)
Sequence (U6KYI1 1-368): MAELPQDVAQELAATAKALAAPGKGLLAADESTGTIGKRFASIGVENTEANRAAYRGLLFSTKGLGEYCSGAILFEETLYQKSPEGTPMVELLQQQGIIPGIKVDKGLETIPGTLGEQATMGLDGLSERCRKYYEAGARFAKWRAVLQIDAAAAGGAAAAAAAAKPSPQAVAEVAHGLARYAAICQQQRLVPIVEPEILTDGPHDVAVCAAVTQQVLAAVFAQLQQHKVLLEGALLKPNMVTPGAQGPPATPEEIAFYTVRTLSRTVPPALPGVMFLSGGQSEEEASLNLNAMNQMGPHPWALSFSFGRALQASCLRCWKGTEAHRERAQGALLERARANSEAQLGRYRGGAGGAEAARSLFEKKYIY
QUANTITY MEASURED: pIC50
Just the number, please; pIC50 means minus log10 of the concentration in mol/L.

Problem: What value of measured pIC50 is listed for `O=c1c(O)c(-c2ccc(O)cc2O)oc2cc(O)cc(O)c12` ?
Result: 4.98
